assay: Biodistribution in sham-operated rats with and without excess cold compound; assay type: in vivo; settings: male, Sprague Dawley, rat, small and large intestine, iv, 3 MBq, total radioactivity, 15 days post-op, 1 hour post-injection, +100-fold excess cold Compound 8, read-out: Activity in Small & Large Intestine, Mean
Numbered stars: 1 amine (or outer) side, 2 acyl side, 3 side chain; on linkers, the order of the positions; unused ones are H or OH. Bridge positions count the residues as written; N and C are the ends. Side chains are listed from the residue outwards. Peptide text beside a SMILES is read from it. * marks the point of attachment. X1 = C/C(=N\O)C(C)(C)NCCC(CCNC(C)(C)/C(C)=N/O)CCN*; Glutaryl = O=C(CCCC(=O)[*:2])[*:1]; X2 = NC(=O)COCC(=O)NCCOCCOCCOCCN*
PROPERTY: tissue uptake dose at 1 h (%ID)
Give the quantity in %ID, number only.

Form field tissue uptake dose at 1 h, entry C/C(=N\O)C(C)(C)NCCC(CCNC(=O)CCCC(=O)NCCCC[C@@H]1NC(=O)CSC[C@@H](C(=O)NCCOCCOCCOCCNC(=O)COCC(N)=O)NC(=O)[C@H](Cc2ccccc2)NC(=O)[C@@H]2CSSC[C@H](NC1=O)C(=O)N[C@@H](CCCNC(=N)N)C(=O)NCC(=O)N[C@@H](CC(=O)O)C(=O)N2)CCNC(C)(C)/C(C)=N/O (stereo partly shown) [Compound 8] ({CH2CO}-K([Glutaryl-X1])CRGDCFC-X2; disulfide 2-6; thioether N-8) : 8.42

----------
assay: Biodistribution in sham-operated rats with and without excess cold compound; format: in vivo; conditions: male, Sprague Dawley, rat, skin, iv, 3 MBq, total radioactivity, 15 days post-op, 1 hour post-injection, +100-fold excess cold Compound 8, read-out: Activity in Skin, Mean
Numbered stars: 1 amine (or outer) side, 2 acyl side, 3 side chain; on linkers, the order of the positions; unused ones are H or OH. Bridge positions count the residues as written; N and C are the ends. Side chains are listed from the residue outwards. Peptide text beside a SMILES is read from it. * marks the point of attachment. X1 = C/C(=N\O)C(C)(C)NCCC(CCNC(C)(C)/C(C)=N/O)CCN*; Glutaryl = O=C(CCCC(=O)[*:2])[*:1]; X2 = NC(=O)COCC(=O)NCCOCCOCCOCCN*
PROPERTY: tissue uptake dose at 1 h

Form field tissue uptake dose at 1 h, entry C/C(=N\O)C(C)(C)NCCC(CCNC(=O)CCCC(=O)NCCCC[C@@H]1NC(=O)CSC[C@@H](C(=O)NCCOCCOCCOCCNC(=O)COCC(N)=O)NC(=O)[C@H](Cc2ccccc2)NC(=O)[C@@H]2CSSC[C@H](NC1=O)C(=O)N[C@@H](CCCNC(=N)N)C(=O)NCC(=O)N[C@@H](CC(=O)O)C(=O)N2)CCNC(C)(C)/C(C)=N/O (stereo partly shown) [Compound 8] ({CH2CO}-K([Glutaryl-X1])CRGDCFC-X2; disulfide 2-6; thioether N-8) : 14 %ID

----------
assay: Biodistribution in BDL rats with and without excess cold compound; format: in vivo; conditions: male, Sprague Dawley, rat, liver, iv, total radioactivity, BDL rats, 15 days post-op, 1 hour post-injection, 100-fold excess cold Compound 8; read-out: Activity in Liver, Mean
Numbered stars: 1 amine (or outer) side, 2 acyl side, 3 side chain; on linkers, the order of the positions; unused ones are H or OH. Bridge positions count the residues as written; N and C are the ends. Side chains are listed from the residue outwards. Peptide text beside a SMILES is read from it. * marks the point of attachment. X1 = C/C(=N\O)C(C)(C)NCCC(CCNC(C)(C)/C(C)=N/O)CCN*; Glutaryl = O=C(CCCC(=O)[*:2])[*:1]; X2 = NC(=O)COCC(=O)NCCOCCOCCOCCN*
PROPERTY: tissue uptake dose at 1 h

Form field tissue uptake dose at 1 h, entry C/C(=N\O)C(C)(C)NCCC(CCNC(=O)CCCC(=O)NCCCC[C@@H]1NC(=O)CSC[C@@H](C(=O)NCCOCCOCCOCCNC(=O)COCC(N)=O)NC(=O)[C@H](Cc2ccccc2)NC(=O)[C@@H]2CSSC[C@H](NC1=O)C(=O)N[C@@H](CCCNC(=N)N)C(=O)NCC(=O)N[C@@H](CC(=O)O)C(=O)N2)CCNC(C)(C)/C(C)=N/O (stereo partly shown) [Compound 8] ({CH2CO}-K([Glutaryl-X1])CRGDCFC-X2; disulfide 2-6; thioether N-8) : 16.1 %ID
